- Test system: HepG2
- assay_explanation: cytotoxicity call (relative viability < 0.9)
- experimental_conditions: 10 µM
Screen size: about 39,000 compounds; about 3,300 (8.5%) were called active. Many of the other results were omitted from the sample, so actives are more common in it than they were.
Hi there, use one of these labels in your reply, thanks! active, inactive

Illustrative cases are given below, each with its answer.
# entry_smiles, cat
rows = [
    ("C[C@@H]1CN([C@H](C)CO)C(=O)c2cc(NC(=O)Cc3cn(C)c4ccccc34)ccc2O[C@H]1CN(C)Cc1ccc(Oc2ccccc2)cc1", "inactive"),
    ("C[C@@H]1CN([C@@H](C)CO)C(=O)c2cc(NS(=O)(=O)c3ccc(F)cc3)ccc2O[C@H]1CN(C)Cc1ccc(Cl)c(Cl)c1", "inactive"),
    ("C[C@H]1CN([C@@H](C)CO)C(=O)c2cc(NS(=O)(=O)c3ccc(F)cc3)ccc2O[C@@H]1CN(C)Cc1ccc(Cl)c(Cl)c1", "active"),
    ("C[C@@H]1CN([C@@H](C)CO)C(=O)c2cc(NC(=O)Cc3cn(C)c4ccccc34)ccc2O[C@H]1CN(C)Cc1ccc(Oc2ccccc2)cc1", "inactive"),
    ("C[C@@H]1CN([C@H](C)CO)C(=O)c2cc(NC(=O)Cc3cn(C)c4ccccc34)ccc2O[C@@H]1CN(C)Cc1ccc(Oc2ccccc2)cc1", "inactive"),
    ("CC(C)NC(=O)Nc1ccc2c(c1)C(=O)N([C@@H](C)CO)C[C@@H](C)[C@H](CN(C)C(=O)Nc1ccc(F)cc1)OCCCC[C@@H](C)O2", "inactive"),
]

[in] Hi, sorry to bother you, what did the test record for `C[C@@H]1CN([C@@H](C)CO)C(=O)c2cc(-c3cncnc3)cnc2O[C@@H]1CN(C)C(=O)Nc1ccc2c(c1)OCO2` ?
[out] inactive

---

- Test system: HepG2
- assay_explanation: cytotoxicity call (relative viability < 0.9)
- experimental_conditions: 10 µM
The campaign covered roughly 39,000 compounds. About 3,300 (8.5%) were called active. The full list was thinned out, with actives kept by preference.

# entry_smiles, study_system, cytotoxicity call
records = [
    ("CS(=O)(=O)N1CCOC[C@@]2(C1)CN(S(=O)(=O)C1CC1)CCO2", "HepG2", "inactive"),
    ("COc1ccc2c3c(n(c2c1)C)[C@H](CO)N(C[C@]13CCN(CC1)Cc1ccccc1F)C(=O)Nc1ccc(cc1)F", "HepG2", "inactive"),
    ("COc1ccc2c3c(n(c2c1)C)[C@@H](CO)N(C[C@]13CCN(CC1)Cc1ccccc1F)C(=O)Nc1ccc(cc1)F", "HepG2", "active"),
    ("COc1ccc2c3c(n(c2c1)C)[C@H](CO)N(C[C@]13CCN(CC1)Cc1cccc(c1)F)C(=O)Nc1ccc(cc1)F", "HepG2", "active"),
]

---

- Tested on: HepG2
- assay_explanation: cytotoxicity call (relative viability < 0.9)
- experimental_conditions: 10 µM
The campaign covered roughly 39,000 compounds. About 3,300 (8.5%) were called active. What follows is part of a selection rich in actives, with near analogues and random picks from the rest.
Select the correct class. Options are active, inactive and nothing else.

Take a look at these entries with their results.
# entry_smiles, cat
rows = [
    ("C[C@@H]1CN([C@@H](C)CO)C(=O)c2cc(NC(=O)Cn3cnnn3)ccc2O[C@@H]1CN(C)S(C)(=O)=O", "inactive"),
    ("Cc1noc(C)c1S(=O)(=O)N(C)C[C@@H]1Oc2c(NS(=O)(=O)c3cn(C)cn3)cccc2C(=O)N([C@H](C)CO)C[C@@H]1C", "inactive"),
    ("COc1cccc(NC(=O)N(C)C[C@@H]2Oc3ncc(C#Cc4ccncc4)cc3C(=O)N([C@H](C)CO)C[C@@H]2C)c1", "inactive"),
]

Could you now look at the following compound, please?
[in] Look up the recorded call for `COc1cccc(NC(=O)N(C)C[C@H]2Oc3ncc(C#Cc4ccncc4)cc3C(=O)N([C@H](C)CO)C[C@H]2C)c1` in this test.
[out] active

---

- Test system: HepG2
- assay_explanation: cytotoxicity call (relative viability < 0.9)
- experimental_conditions: 10 µM
Screen size: about 39,000 compounds; about 3,300 (8.5%) were called active. Shown is part of a subset that was picked to be rich in actives.
experimental_endpoint: cytotoxicity call

The examples below pair each entry with its known result.
# entry_smiles, experimental_endpoint, reported
records = [
    ("NCC[C@@H]1CC[C@H](NC(=O)C2CC2)[C@@H](CO)O1", "cytotoxicity call", "inactive"),
    ("Cc1ccc(S(=O)(=O)Oc2ccc(/N=N/c3ccc(-c4ccc(/N=N/c5c(O)ccc6cc(S(=O)(=O)O)cc(S(=O)(=O)O)c56)c(C)c4)cc3C)cc2)cc1", "cytotoxicity call", "inactive"),
    ("O=C(Nc1ccc2c(c1)[C@@H]1C[C@@H](CC(=O)N3CCc4ccccc4C3)O[C@H](CO)[C@@H]1O2)C1CCOCC1", "cytotoxicity call", "inactive"),
    ("CC(C)(C)[S@@](=O)N1Cc2cc(C(=O)N3CCCCC3)nc(-c3cccc(-c4ccc(F)cc4)c3)c2[C@H]1CCO", "cytotoxicity call", "inactive"),
    ("C[C@@H]1CN([C@H](C)CO)C(=O)Cc2cc(NC(=O)CCN3CCOCC3)ccc2O[C@H]1CN(C)Cc1ccc2c(c1)OCO2", "cytotoxicity call", "inactive"),
]

[in] So what does the record say about cytotoxicity call for `C[C@@H]1CCCCO[C@@H](CN(C)S(=O)(=O)c2cccs2)[C@@H](C)CN([C@@H](C)CO)C(=O)c2cc(NC(=O)C3CCCCC3)ccc2O1` ?
[out] inactive

[in] Field entry: `C[C@H](CO)N1C[C@H](C)[C@@H](CN(C)S(=O)(=O)c2ccccc2C#N)OCc2cnnn2CCCC1=O`
[out] inactive

---

- Tested on: HepG2
- assay_explanation: cytotoxicity call (relative viability < 0.9)
- experimental_conditions: 10 µM
Screen size: about 39,000 compounds; about 3,300 (8.5%) were called active. This is one part of a sample in which actives are shown more often than they occur.
Bench note: report the call from y = active, n = inactive

# entry_smiles, cat
rows = [
    ("CC(C)N(CCOc1c(Br)cc(/C=C/C(=O)NCCCOc2c(Br)cc(CCN(C)C)cc2Br)cc1Br)C(C)C", "y"),
]

[in] Which outcome was assigned to `CN1C(=O)c2cc(NC(=O)Cc3cccs3)ccc2OC[C@H]2O[C@@H](CC(=O)NCCc3ccncc3)CC[C@H]21` in this test?
[out] n

[in] Also, `C[C@@H]1CN([C@@H](C)CO)S(=O)(=O)c2ccc(-c3cccc(C#N)c3)cc2O[C@@H]1CN(C)C(=O)c1cccnc1` please.
[out] n

[in] Same again, this time with `CN(C)C1CN(S(=O)(=O)CCC2CC2)C1`
[out] n

[in] # repeat for `CC(C)NC(=O)N(C)C[C@@H]1Oc2cc(-c3ccccc3F)ccc2S(=O)(=O)N([C@H](C)CO)C[C@@H]1C`
[out] n

[in] Thanks! And `C[C@@H]1CN([C@@H](C)CO)C(=O)c2cccc(NC(=O)Nc3ccc4c(c3)OCO4)c2O[C@H]1CN(C)Cc1ccc(Cl)c(Cl)c1` ?
[out] n

[in] What do we get for `Cc1ccc(S(=O)(=O)Nc2ccc3c(c2)CC(=O)N([C@H](C)CO)C[C@H](C)[C@H](CN(C)C(=O)Nc2ccc(C(F)(F)F)cc2)O3)cc1` ?
[out] n

[in] // same read-out, input: `C[C@H](CO)N1C[C@H](C)[C@@H](CN(C)S(C)(=O)=O)Oc2ccc(NC(=O)NC3CCCCC3)cc2C1=O`
[out] n

[in] What do you have for `COc1cccc(C#Cc2ccc3c(c2)O[C@H](CN(C)C(C)=O)[C@@H](C)CN([C@H](C)CO)S3(=O)=O)c1` ?
[out] n

[in] Follow-up item: `COc1cccc(C#Cc2ccc3c(c2)O[C@H](CN(C)C(C)=O)[C@H](C)CN([C@@H](C)CO)S3(=O)=O)c1`
[out] n

[in] Item: `COc1cccc(C#Cc2ccc3c(c2)O[C@@H](CN(C)C(=O)c2ccccn2)[C@@H](C)CN([C@@H](C)CO)S3(=O)=O)c1`
[out] n

---

- System: HepG2
- assay_explanation: cytotoxicity call (relative viability < 0.9)
- experimental_conditions: 10 µM
Among all 39,000 compounds or so, about 3,300 (8.5%) were called active. Only a selection was taken, and actives are over-represented in it overall.
Form entry, call: pick from t = active, f = inactive

# entry_smiles, cat
measured = [
    ("Cc1cccc(Nc2ccccc2C(=O)O)c1C", "f"),
    ("C[C@@H]1CN([C@H](C)CO)C(=O)c2cc(NC(=O)Nc3cccc4ccccc34)ccc2O[C@@H](C)CCCCO[C@@H]1CN(C)C(=O)NC1CCCCC1", "f"),
    ("C[C@H]1CCCCO[C@@H](CN(C)C(=O)Nc2cccc3ccccc23)[C@@H](C)CN([C@@H](C)CO)C(=O)c2cc(NS(C)(=O)=O)ccc2O1", "f"),
    ("O=C(O)CCC(=O)N1CC(=O)Nc2ccccc21", "f"),
    ("C[C@@H]1CCCCO[C@@H](CN(C)C(=O)Nc2ccccc2)[C@H](C)CN([C@@H](C)CO)C(=O)c2cc(NC(=O)Nc3ccccc3)ccc2O1", "f"),
    ("CC(C)NC(=O)N(C)C[C@@H]1Oc2ncc(-c3ccc(C(=O)N(C)C)cc3)cc2C(=O)N([C@H](C)CO)C[C@@H]1C", "f"),
]

[in] Which result was noted for this compound in the test: `CC(=O)N(C)C1(c2ccccc2)CCN(CCC[C@]2(c3ccc(Cl)c(Cl)c3)CCCN(C(=O)c3ccccc3)C2)CC1`
[out] t

[in] Proceed to `COc1cccc(S(=O)(=O)N(C)C[C@@H]2OCc3cn(nn3)CCCC(=O)N([C@@H](C)CO)C[C@@H]2C)c1`
[out] f

[in] Please give the result for `CC(C)Oc1cccc(CC(=O)N2CCC[C@](CC[N+]34CCC(c5ccccc5)(CC3)CC4)(c3ccc(Cl)c(Cl)c3)C2)c1` too.
[out] f

[in] Moving on to `O=C(C[C@@H]1CC[C@H](NS(=O)(=O)c2ccccc2)[C@H](CO)O1)NCc1ccncn1`
[out] f
